Task for the reader: assign each of the following compounds its reported inhibition at 40 µM.
- Subject of test: Bcl-xL-Beclin 1 complex (Homo sapiens)
- Construct: made in house
- Test: FP-based high-throughput screening, primary screen
- Assay type: binding
- Settings: first screen; 40 μM compound, 2.5 μM Bcl-xL, 400 nM 20-mer
Where a name gives a salt, the structure may show the parent alone.
Your answer is read as %, so omit the unit and give the number.

Prompt: For the compound shown here, COc1cccc2c1C(=O)c1c(O)c3c(c(O)c1C2=O)C[C@@](O)(C(=O)CO)C[C@@H]3O[C@H]1C[C@H](N)[C@H](O)[C@H](C)O1 [Compound A25, DOXORUBICIN HYDROCHLORIDE] , give the reported inhibition at 40 µM.
Response: 44

Prompt: For the compound shown here, O=C1c2cccc(O)c2C(=O)c2c(O)cccc21 [Compound A03, DANTHRON] , give the reported inhibition at 40 µM.
Response: 9.62

Prompt: For the compound shown here, CC1=NCCc2c1[nH]c1cc(O)ccc21 [Compound A28, HARMALOL HYDROCHLORIDE] , give the reported inhibition at 40 µM.
Response: 60

Prompt: For the compound shown here, CN(C)c1ccc(C(=C2C=CC(=[N+](C)C)C=C2)c2ccc(N(C)C)cc2)cc1 [Compound A08, GENTIAN VIOLET] , give the reported inhibition at 40 µM.
Response: 11.7

Prompt: For the compound shown here, O=C(O)c1cc(O)c2c(c1)[C@@H]([C@H]1c3cc(C(=O)O)cc(O)c3C(=O)c3c(O[C@@H]4O[C@H](CO)[C@@H](O)[C@H](O)[C@H]4O)cccc31)c1cccc(O[C@@H]3O[C@H](CO)[C@@H](O)[C@H](O)[C@H]3O)c1C2=O [Compound A35, SENNOSIDE B] , give the reported inhibition at 40 µM.
Response: 14.3

Prompt: For the compound shown here, C[n+]1cc2c3c(ccc2c2ccc4cc5c(cc4c21)OCO5)OCO3 [Compound A05, SANGUINARINE SULFATE] , give the reported inhibition at 40 µM.
Response: 6.61

Prompt: For the compound shown here, O=C1C=C2CC3(O)COc4cc(O)ccc4C3=C2C=C1O (stereo not shown) [Compound A01, BRAZILEIN] , give the reported inhibition at 40 µM.
Response: 31

====

Task for the reader: assign each of the following molecules its reported inhibition at 20 µM.
- Subject of test: Bcl-xL-Beclin 1 complex (Homo sapiens, UniProt Q07817)
- Construct: made in house
- Sequence (Q07817 whole entry, one chain of several): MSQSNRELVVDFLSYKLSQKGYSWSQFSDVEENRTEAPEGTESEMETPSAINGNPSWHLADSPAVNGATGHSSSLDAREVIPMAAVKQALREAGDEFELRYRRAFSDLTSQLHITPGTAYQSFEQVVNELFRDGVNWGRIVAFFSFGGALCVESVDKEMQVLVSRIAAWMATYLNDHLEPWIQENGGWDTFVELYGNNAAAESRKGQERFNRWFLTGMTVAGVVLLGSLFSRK
- Test: Concentration response FP reconfirmation of HTS hits
- Type: binding
- Settings: 20 μM; hits of first screen; read-out: Dose-response (% Inhibition) 20 μM
Remember to follow the number with its unit.

Prompt: For the molecule shown here, O=C1c2cccc(O)c2C(=O)c2c(O)cccc21 [Compound A03, DANTHRON] , give the reported inhibition at 20 µM.
Response: 4.8%

Prompt: For the molecule shown here, CCCCCc1c2c(cc(O)c1C(=O)O)OC(=O)c1c(cc(OC)cc1C(=O)CCCC)O2 [Compound A04, LOBARIC ACID] , give the reported inhibition at 20 µM.
Response: 2%

Prompt: For the molecule shown here, CC(C)=CCCC1(C)C=Cc2c(O)c3c(c(CC=C(C)C)c2O1)OC12C(=CCCC1C(C)(C)O[C@@]2(C/C=C(\C)C(=O)O)C(=O)O)C3=O (stereo partly drawn) [Compound A02, GARCINOLIC ACID] , give the reported inhibition at 20 µM.
Response: 3.6%

Prompt: For the molecule shown here, O=C(O)c1cc(O)c2c(c1)[C@@H]([C@H]1c3cc(C(=O)O)cc(O)c3C(=O)c3c(O[C@@H]4O[C@H](CO)[C@@H](O)[C@H](O)[C@H]4O)cccc31)c1cccc(O[C@@H]3O[C@H](CO)[C@@H](O)[C@H](O)[C@H]3O)c1C2=O [Compound A35, SENNOSIDE B] , give the reported inhibition at 20 µM.
Response: 5.8%

Prompt: For the molecule shown here, COC(=O)CC[C@@H](C)[C@H]1CC[C@H]2[C@@H]3[C@H](O)C[C@@H]4C[C@H](O)CC[C@]4(C)[C@H]3C[C@H](O)[C@]12C [Compound A09, CHOLIC ACID, METHYL ESTER] , give the reported inhibition at 20 µM.
Response: 1.7%

Prompt: For the molecule shown here, O=C1C=C2CC3(O)COc4cc(O)ccc4C3=C2C=C1O (stereo not drawn) [Compound A01, BRAZILEIN] , give the reported inhibition at 20 µM.
Response: 23%

====

Task for the reader: assign each of the following molecules its reported inhibition at 80 µM.
- Subject of test: Bcl-xL-Beclin 1 complex (Homo sapiens, UniProt Q07817)
- Construct: made in house
- Test: Concentration response FP reconfirmation of HTS hits
- Assay type: binding
- Settings: 80 μM; hits of first screen; read-out: Dose-response (% Inhibition) 80 μM
Counter-ions that a name gives are not always drawn.
Your answer is read as %, so omit the unit and give the number.

Prompt: For the molecule shown here, COc1cccc2c1C(=O)c1c(O)c3c(c(O)c1C2=O)C[C@@](O)(C(=O)CO)C[C@@H]3O[C@H]1C[C@H](N)[C@H](O)[C@H](C)O1 [Compound A25, DOXORUBICIN HYDROCHLORIDE] , give the reported inhibition at 80 µM.
Response: 48.6

Prompt: For the molecule shown here, CN(C)c1ccc(C(=C2C=CC(=[N+](C)C)C=C2)c2ccc(N(C)C)cc2)cc1 , give the reported inhibition at 80 µM.
Response: 21.2

Prompt: For the molecule shown here, CC(C)=CCCC1(C)C=Cc2c(O)c3c(c(CC=C(C)C)c2O1)OC12C(=CCCC1C(C)(C)O[C@@]2(C/C=C(\C)C(=O)O)C(=O)O)C3=O (stereo partly drawn) , give the reported inhibition at 80 µM.
Response: 18.1

Prompt: For the molecule shown here, COC(=O)CC[C@@H](C)[C@H]1CC[C@H]2[C@@H]3[C@H](O)C[C@@H]4C[C@H](O)CC[C@]4(C)[C@H]3C[C@H](O)[C@]12C , give the reported inhibition at 80 µM.
Response: 9.3

Prompt: For the molecule shown here, CCOc1ccc2nc3cc(N)ccc3c(N)c2c1 [Compound A15, ETHACRIDINE LACTATE] , give the reported inhibition at 80 µM.
Response: 47.7

Prompt: For the molecule shown here, COc1cccc2c1C(=O)c1c(O)c3c(c(O)c1C2=O)C[C@@](O)(C(=O)CO)C[C@@H]3O[C@H]1C[C@H](N)[C@@H](O)[C@H](C)O1 [Compound A24, EPIRUBICIN HYDROCHLORIDE] , give the reported inhibition at 80 µM.
Response: 34.4

====

- Subject of test: Bcl-xL-Beclin 1 complex (Homo sapiens)
- Construct: made in house
- Test: FP-based high-throughput screening, primary screen
- Type: binding
- Settings: first screen; 40 μM compound, 2.5 μM Bcl-xL, 400 nM 20-mer
Where a name gives a salt, the structure may show the parent alone.
# cutoff 10% applies to inhibition at 40 µM; >= gives True, < gives False

Prompt: Textbook exercise: given the entry CC(C)=CCCC1(C)C=Cc2c(O)c3c(c(CC=C(C)C)c2O1)OC12C(=CCCC1C(C)(C)O[C@@]2(C/C=C(\C)C(=O)O)C(=O)O)C3=O (stereo partly shown) , state whether its inhibition at 40 µM is greater than or equal to 10%.
Response: True

Prompt: Textbook exercise: given the entry Cc1cc2c(C(C)C)c(O)c(O)c(C=O)c2c(O)c1-c1c(C)cc2c(C(C)C)c(O)c(O)c(C=O)c2c1O , state whether its inhibition at 40 µM is greater than or equal to 10%.
Response: True

Prompt: Textbook exercise: given the entry OCCN(CCO)c1nc(N2CCCCC2)c2nc(N(CCO)CCO)nc(N3CCCCC3)c2n1 , state whether its inhibition at 40 µM is greater than or equal to 10%.
Response: True

Prompt: Textbook exercise: given the entry CN1C[C@H](C(=O)N[C@]2(C)O[C@@]3(O)[C@@H]4CCCN4C(=O)[C@H](Cc4ccccc4)N3C2=O)C=C2c3cccc4[nH]cc(c34)C[C@H]21 [Compound A18, ERGOTAMINE TARTRATE] , state whether its inhibition at 40 µM is greater than or equal to 10%.
Response: True

Prompt: Textbook exercise: given the entry Nc1ccc2cc3ccc(N)cc3nc2c1 [Compound A13, PROFLAVINE HEMISULFATE] , state whether its inhibition at 40 µM is greater than or equal to 10%.
Response: True

Prompt: Textbook exercise: given the entry CCCc1nc2c(C)cc(-c3nc4ccccc4n3C)cc2n1Cc1ccc(-c2ccccc2C(=O)O)cc1 , state whether its inhibition at 40 µM is greater than or equal to 10%.
Response: False

Prompt: Textbook exercise: given the entry Cc1cc2nc3c(=O)[nH]c(=O)nc-3n(C[C@H](O)[C@H](O)[C@H](O)CO)c2cc1C , state whether its inhibition at 40 µM is greater than or equal to 10%.
Response: True

Prompt: Textbook exercise: given the entry O=C1c2c(O)ccc(O)c2C(=O)c2c(NCCNCCO)ccc(NCCNCCO)c21 [Compound A11, MITOXANTRONE HYDROCHLORIDE] , state whether its inhibition at 40 µM is greater than or equal to 10%.
Response: True

Prompt: Textbook exercise: given the entry CC[C@@]1(O)C(=O)OCc2c1cc1n(c2=O)Cc2cc3c(CN(C)C)c(O)ccc3nc2-1 [Compound A23, TOPOTECAN HYDROCHLORIDE] , state whether its inhibition at 40 µM is greater than or equal to 10%.
Response: True

Prompt: Textbook exercise: given the entry COC(=O)CC[C@@H](C)[C@H]1CC[C@H]2[C@@H]3[C@H](O)C[C@@H]4C[C@H](O)CC[C@]4(C)[C@H]3C[C@H](O)[C@]12C , state whether its inhibition at 40 µM is greater than or equal to 10%.
Response: False

Prompt: Textbook exercise: given the entry O=C(Nc1ccccc1)c1ccccc1O [Compound A39, SALICYLANILIDE] , state whether its inhibition at 40 µM is greater than or equal to 10%.
Response: True

Prompt: Textbook exercise: given the entry COC(=O)Nc1nc2ccc(Sc3ccccc3)cc2[nH]1 , state whether its inhibition at 40 µM is greater than or equal to 10%.
Response: False

Prompt: Textbook exercise: given the entry CC[n+]1c(-c2ccccc2)c2cc(N)ccc2c2ccc(N)cc21 [Compound A12, HOMIDIUM BROMIDE] , state whether its inhibition at 40 µM is greater than or equal to 10%.
Response: True
